test system: SW-620 colon; assay: NCI tumour cell line growth inhibition, 48 h; in the data active = GI50 below about 0.43 µM; inactive = the rest
Outcomes: true (active), false (inactive)

1. C=C1C(=O)O[C@H]2[C@H]1CC/C(COC(=O)C(=O)c1cn(C)c3ccc(Cl)cc13)=C\CC[C@@]1(C)O[C@@H]21 false
2. Cc1ccc(Cc2cnc(NC(=O)/C=C/c3cccc(C)c3)s2)cc1 true
3. O=S(=O)(NCCCNc1nccc(-c2c(-c3ccc(F)c(O)c3)nc3sccn23)n1)c1ccc(F)cc1 false
4. CC(=O)N1C/C(=C/c2ccc(Cl)cc2)C(=O)/C(=C/c2ccc(Cl)cc2)C1 true

* * *

test system: A498 renal; test: NCI tumour cell line growth inhibition, 48 h
Listed molecules paired with reported TGI

molecule	TGI
COc1ccc(N2C(=O)[C@H]3[C@H]4CC(C(C)(C)C)CC[C@H]4c4c(n(C)c5ccccc45)[C@H]3C2=O)cc1 (stereo not given in full)	> 46.4 µM
c1cc(N2CCCN(c3ccc(C4=NCCCN4)cc3)CC2)ccc1C1=NCCCN1	> 100 µM
CC1CN=C(Nc2ccccc2)S1 (stereo not given)	> 100 µM
C1CSCCSCCSCCSC1	> 100 µM
COc1cccc2c1CCc1c(-c3ccc(F)cc3)cc(-c3ccc4ccccc4n3)nc1-2	> 100 µM
